- TARGET ENTITY: T1, VEGF121 (human, UniProt P15692 27-147)
- T1 construct: mature; Immobilized on the biosensor chip via primary amino groups; also called Purified VEGF121
- T1 sequence (looked up): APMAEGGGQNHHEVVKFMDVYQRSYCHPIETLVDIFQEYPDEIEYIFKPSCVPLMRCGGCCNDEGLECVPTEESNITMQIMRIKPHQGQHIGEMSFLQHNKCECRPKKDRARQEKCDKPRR
- PROTOCOL DESCRIPTION: BIAcore SPR, Fab over immobilized VEGF121
- Experimental: VEGF₁₂₁ was covalently immobilized on the biosensorchip via primary amino groups. Binding of humanized A4.6.1 Fab variants was measured by flowing solutions of Fab in PBS/0.05% TWEEN 20™ over the chip at a flow rate of 20 μL/min. […] Binding profiles were analyzed by nonlinear regression using a simple monovalent binding model (BIAevaluation software v2.0; Pharmacia).
Kd for assorted binders
MEASUREMENT LABEL: Kd

| BINDER | RESULT |
| --- | --- |
| hu2.2 (Fab, name in Kabat numbering, V domains shown, soluble Fab with human constant domains) VH: EVQLVESGGGLVQPGGSLRLSCAASGYTFTNYGMNWIRQAPGKGLEWVGWINTYTGEPTYAADFKRRFTISRDNSKNTVYLQMNSLRAEDTAVYYCAKYPHYYGSSHWYFDVWGQGTLVTVSS VL: DIQLTQSPSSLSASVGDRVTITCSASQDISNYLNWYQQKPGKAPKLLIYFTSSLHSGVPSRFSGSGSGTDYTLTISSLQPEDFATYYCQQYSTVPWTFGQGTKVEIK | 340 nM |
| hu2.7 (Fab, name in Kabat numbering, V domains shown, soluble Fab with human constant domains) VH: EVQLVESGGGLVQPGGSLRLSCAASGYTFTNYGMNWIRQAPGKGLEWVGWINTYTGEPTYAADFKRRFTISRDNSKNTVYLQMNSLRAEDTAVYYCAKYPHYYGSSHWYFDVWGQGTLVTVSS VL: DIQLTQSPSSLSASVGDRVTITCSASQDISNYLNWYQQKPGKAPKLLIYFTSSLHSGVPSRFSGSGSGTDFTLTISSLQPEDFATYYCQQYSTVPWTFGQGTKVEIK | 360 nM |
| chimeric F(ab) (Fab, V domains shown, also called chim-F(ab); A4.6.1 chimera) VH: EIQLVQSGPELKQPGETVRISCKASGYTFTNYGMNWVKQAPGKGLKWMGWINTYTGEPTYAADFKRRFTFSLETSASTAYLQISNLKNDDTATYFCAKYPHYYGSSHWYFDVWGAGTTVTVSS VL: DIQMTQTTSSLSASLGDRVIISCSASQDISNYLNWYQQKPDGTVKVLIYFTSSLHSGVPSRFSGSGSGTDYSLTISNLEPEDIATYYCQQYSTVPWTFGGGTKLEIKR | 1.6 nM |
| hu2.6 (Fab, name in Kabat numbering, V domains shown, soluble Fab with human constant domains) VH: EVQLVESGGGLVQPGGSLRLSCAASGYTFTNYGMNWIRQAPGKGLEWVGWINTYTGEPTYAADFKRRTTISLDTSASTVYLQMNSLRAEDTAVYYCAKYPHYYGSSHWYFDVWGQGTLVTVSS VL: DIQLTQSPSSLSASVGDRVTITCSASQDISNYLNWYQQKPGKAPKLLIYFTSSLHSGVPSRFSGSGSGTDFTLTISSLQPEDFATYYCQQYSTVPWTFGQGTKVEIK | 67 nM |
| hu2.1 (Fab, name in Kabat numbering, V domains shown, soluble Fab with human constant domains) VH: EVQLVESGGGLVQPGGSLRLSCAASGYTFTNYGMNWIRQAPGKGLEWVGWINTYTGEPTYAADFKRRFTISRDNSKNTVYLQMNSLRAEDTAVYYCAKYPHYYGSSHWYFDVWGQGTLVTVSS VL: DIQMTQSPSSLSASVGDRVTITCSASQDISNYLNWYQQKPGKAPKLLIYFTSSLHSGVPSRFSGSGSGTDYTLTISSLQPEDFATYYCQQYSTVPWTFGQGTKVEIK | 260 nM |
| hu2.10 (Fab, V domains shown, Soluble Fab with human constant domains; also called consensus clone hu2.10) VH: EVQLVESGGGLVQPGGSLRLSCAASGYTFTNYGMNWIRQAPGKGLEWVGWINTYTGEPTYAADFKRRFTISLDTSASTVYLQMNSLRAEDTAVYYCAKYPHYYGSSHWYFDVWGQGTLVTVSS VL: DIQMTQSPSSLSASVGDRVTITCSASQDISNYLNWYQQKPGKAPKLLIYFTSSLHSGVPSRFSGSGSGTDYTLTISSLQPEDFATYYCQQYSTVPWTFGQGTKVEIK | 55 nM |
| hu2.10V (Fab, V domains shown, Soluble Fab with human constant domains; also called hu2.10 with mutation VL Leu->Val) VH: EVQLVESGGGLVQPGGSLRLSCAASGYTFTNYGMNWIRQAPGKGLEWVGWINTYTGEPTYAADFKRRFTISLDTSASTVYLQMNSLRAEDTAVYYCAKYPHYYGSSHWYFDVWGQGTLVTVSS VL: DIQMTQSPSSLSASVGDRVTITCSASQDISNYLNWYQQKPGKAPKVLIYFTSSLHSGVPSRFSGSGSGTDYTLTISSLQPEDFATYYCQQYSTVPWTFGQGTKVEIK | 9.3 nM |
